target: Neurogenic locus notch homolog protein 3 (Homo sapiens); experiment: NOTCH3 binders on small-molecule microarray, primary screen, biochemical, 635/667 nm fluorescence (AID 1096); details: NOTCH3 binding, 635 nm fluorescence, higher = more signal
Short version: composite z-score at least 0.5 is Criterion met, less is Criterion not met.

Determine whether this compound has composite z-score no lower than 0.5: COCCCNC(=O)[C@@H]1c2ccccc2C(=O)N(Cc2cc(C(F)(F)F)cc(C(F)(F)F)c2)[C@H]1c1ccc(CO)cc1 Criterion not met

Could you verify whether the entry COCC(=C=CC[C@@H](O)c1ccc(OCCO)cc1)C[C@@H](O)COCc1ccccc1 shows composite z-score of no less than 0.5? Criterion met

Tell me whether composite z-score is at least 0.5 here: COC(=O)[C@@]1(Cc2ccc(F)cc2)[C@H]2c3cc(C(=O)N4CCCC4)n(CCO)c3C[C@H]2CN1C(=O)c1ccccc1 Criterion met

State whether the measured composite z-score reaches 0.5, counting equality as reaching it, for O=C1N(Cc2ccccc2)c2ccccc2[C@H]2OC(c3ccc(OCCCO)cc3)=N[C@@]12Cc1ccccc1 Criterion met

Hi, just wondering whether COc1cc2c(cc1O)C(C1CC1)N(Cc1ccc([N+](=O)[O-])o1)CC2 (stereo not drawn) shows composite z-score of 0.5 or higher. Criterion met

* * *

Reported z-score values for a set of compounds
experiment: inhibitors of hydroxyurea-induced Chk1 phosphorylation, primary screen, imaging, HeLa, phospho-Chk1 antibody, percent positive cells (AID 1186); conditions: hydroxyurea-induced phospho-Chk1 immunofluorescence imaging, higher = more signal
Write the number on its own, no unit after it.

Look up z-score: CC(C)C[C@@H]1NC(=O)C([C@@H](C)OCc2ccccc2)NC(=O)[C@@]23C(=O)N[C@@H](Cc4ccccc4)C2[C@H](C)[C@@]2(C)O[C@H]2C3/C=C/CC/C=C/CNC1=O (stereo partly drawn) -0.799

Recorded z-score of C=CCN1C(=O)[C@]2(O[C@H](CCn3cc([C@H](O)c4ccccc4)nn3)[C@@H]([Si](C)(C)c3ccc(OC)cc3)[C@@H]2C)c2cc(N3C(=O)c4cccc5cccc3c45)ccc21 , please. -0.65

From here, focus on the item given below.
Entry under review: O=C1c2ccccc2[C@](Cc2ccccc2I)(C(=O)O)[C@H](c2ccc(CO)cc2)N1Cc1ccccc1 . Reported z-score? -0.422

* * *

molecular target: NADPH oxidase 5 (Homo sapiens) (UniProt Q96PH1); assay: NOX5-dependent H2O2 signal modulators, primary screen, NOX inhibitor project, cell-based, HEK293-NOX5, Amplex Red fluorescence (AID 1161); settings: HEK293-NOX5, ionomycin, 45 min, higher = more signal
Sequence (Q96PH1 whole entry, looked up): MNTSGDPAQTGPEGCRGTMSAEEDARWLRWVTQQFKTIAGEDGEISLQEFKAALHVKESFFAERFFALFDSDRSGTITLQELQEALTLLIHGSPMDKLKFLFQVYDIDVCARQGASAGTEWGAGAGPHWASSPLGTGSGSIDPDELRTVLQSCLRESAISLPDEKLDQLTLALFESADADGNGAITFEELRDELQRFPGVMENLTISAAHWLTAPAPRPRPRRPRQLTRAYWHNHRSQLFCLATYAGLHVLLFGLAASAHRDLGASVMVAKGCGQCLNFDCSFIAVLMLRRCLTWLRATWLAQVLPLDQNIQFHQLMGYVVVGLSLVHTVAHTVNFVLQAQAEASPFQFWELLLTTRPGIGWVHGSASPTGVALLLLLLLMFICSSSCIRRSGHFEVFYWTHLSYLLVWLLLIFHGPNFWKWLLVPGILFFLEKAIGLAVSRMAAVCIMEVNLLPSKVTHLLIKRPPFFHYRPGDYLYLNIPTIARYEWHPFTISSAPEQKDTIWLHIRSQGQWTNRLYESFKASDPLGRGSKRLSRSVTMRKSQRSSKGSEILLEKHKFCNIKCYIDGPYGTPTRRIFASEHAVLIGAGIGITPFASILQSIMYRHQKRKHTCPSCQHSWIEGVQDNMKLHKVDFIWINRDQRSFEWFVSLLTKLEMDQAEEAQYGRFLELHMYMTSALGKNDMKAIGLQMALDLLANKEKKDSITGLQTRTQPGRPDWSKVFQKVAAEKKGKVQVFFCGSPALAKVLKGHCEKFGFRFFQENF
Measured z-score accompanies every entry in the list below.

Answered cases to consult:
Looking for the measured z-score of O=C1c2ccccc2[C@@]2(Cc3ccccc3N(Cc3ccccc3)C2=O)[C@H](c2ccc(CO)cc2)N1Cc1ccccc1 , can you help? -0.107

Query: z-score; subject: CCCCC=C[C@@H](NC(=O)c1ccc(C(F)(F)F)cc1)c1ccccc1 1.1

Look at this molecule and give its reported z-score. COc1ccc(CCNC(=O)[C@@]2(C)c3ccccc3C(=O)N(Cc3cc(C(F)(F)F)cc(C(F)(F)F)c3)[C@H]2c2ccc(CO)cc2)cc1 -2.75

If you can, please state the reported z-score value of C=CCOC(=O)[C@H]1[C@@H]2C(=O)O[C@@H](c3ccccc3)[C@@H](c3ccccc3)N2[C@@H](c2ccc(OCCOC(=O)[C@@H]3C[C@@H]4C(=O)N[C@@H](CC(C)C)C(=O)N4[C@@H]3c3ccc(O)cc3)cc2)[C@]12C(=O)Nc1ccc(I)cc12 . 1.4

Returns the measured z-score for the input molecule. Input: C=CC[C@@]1(C(=O)O)N=C(c2ccc(OCCCO)cc2)O[C@@H]1c1ccccc1CN=[N+]=[N-] 0.186

So what does the record say about z-score for COC(=O)C1=CC(CCCO)=CC(C2CC2)N(Cc2cccc(OC(F)(F)F)c2)C=C1C(=O)OC (configuration not stated) ? 0.973

Continue with the next molecule.
State the recorded z-score for this entry: COCCOC(=O)N1C(=O)[C@@]2(c3cc(C#CCC(C(=O)OC)C(=O)OC)ccc31)[C@H](C(=O)N1CCCCCCC1)[C@H]1C(=O)O[C@H](c3ccccc3)[C@H](c3ccccc3)N1[C@@H]2c1ccccc1OCCO -1.87
